Here the recorded isoTOP-ABPP ratio (R) at liganded lysine P13804_K139 is given for each entry.
Biological target: ETFA Electron transfer flavoprotein subunit alpha, mitochondrial (Homo sapiens)
Construct: isoTOP-ABPP experiments performed in cell lysates (in vitro); endogenous in cells; host or cells: soluble proteome of human cancer cell lines (MDA-MB-231; Ramos and Jurkat also prepared)
Sequence (P13804 20-333): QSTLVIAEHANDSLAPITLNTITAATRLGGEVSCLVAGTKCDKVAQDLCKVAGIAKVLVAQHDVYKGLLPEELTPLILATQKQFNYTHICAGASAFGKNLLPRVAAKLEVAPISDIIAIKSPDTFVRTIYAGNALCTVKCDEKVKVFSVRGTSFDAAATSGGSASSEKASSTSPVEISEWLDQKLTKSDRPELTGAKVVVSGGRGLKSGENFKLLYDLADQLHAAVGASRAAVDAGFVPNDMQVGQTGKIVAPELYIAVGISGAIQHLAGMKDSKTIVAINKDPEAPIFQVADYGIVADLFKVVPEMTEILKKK
Sequence (P38117 2-255 partner limits assumed): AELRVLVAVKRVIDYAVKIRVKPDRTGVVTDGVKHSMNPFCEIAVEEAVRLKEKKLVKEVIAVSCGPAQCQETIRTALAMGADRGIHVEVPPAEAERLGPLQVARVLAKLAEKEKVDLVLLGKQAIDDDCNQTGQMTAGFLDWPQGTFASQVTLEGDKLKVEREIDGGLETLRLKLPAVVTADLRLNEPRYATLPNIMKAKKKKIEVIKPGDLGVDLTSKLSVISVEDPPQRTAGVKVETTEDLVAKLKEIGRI
Assay: competitive isoTOP-ABPP
Type: binding
Conditions: 50 uM, in vitro, sol, 231
METRIC NAME: isoTOP-ABPP ratio (R) at liganded lysine P13804_K139

compound=O=C(CCc1coc2cc(F)ccc2c1=O)Oc1ccc([N+](=O)[O-])cc1[N+](=O)[O-] subject_of_test="ETFA Electron transfer flavoprotein subunit alpha, mitochondrial (Homo sapiens)" observed_result=0.7
compound="O=C(Oc1ccc([N+](=O)[O-])cc1[N+](=O)[O-])c1ccc(Oc2ccccc2)cc1 [fragment 39, 2,4-Dinitrophenyl 4-phenoxybenzoate]" subject_of_test="ETFA Electron transfer flavoprotein subunit alpha, mitochondrial (Homo sapiens)" observed_result=0.6
compound=CC(C)(C)OC(=O)NCCCC(=O)Oc1ccc([N+](=O)[O-])cc1[N+](=O)[O-] subject_of_test="ETFA Electron transfer flavoprotein subunit alpha, mitochondrial (Homo sapiens)" observed_result=20.0
compound=O=C(Oc1ccc([N+](=O)[O-])cc1[N+](=O)[O-])c1ccccc1Nc1cccc(C(F)(F)F)c1 subject_of_test="ETFA Electron transfer flavoprotein subunit alpha, mitochondrial (Homo sapiens)" observed_result=0.9
compound=O=C(Oc1ccc([N+](=O)[O-])cc1[N+](=O)[O-])c1ccc2ccccc2n1 subject_of_test="ETFA Electron transfer flavoprotein subunit alpha, mitochondrial (Homo sapiens)" observed_result=0.9
compound=O=C(Oc1ccc([N+](=O)[O-])cc1[N+](=O)[O-])c1ccc(-c2ccccc2)cc1 subject_of_test="ETFA Electron transfer flavoprotein subunit alpha, mitochondrial (Homo sapiens)" observed_result=0.9
